Source listed as patent US12258328B2.

Target: EGFR L858R/C797S (Homo sapiens, UniProt P00533, C797S/L858R)
Sequence (P00533 25-1210 C797S/L858R): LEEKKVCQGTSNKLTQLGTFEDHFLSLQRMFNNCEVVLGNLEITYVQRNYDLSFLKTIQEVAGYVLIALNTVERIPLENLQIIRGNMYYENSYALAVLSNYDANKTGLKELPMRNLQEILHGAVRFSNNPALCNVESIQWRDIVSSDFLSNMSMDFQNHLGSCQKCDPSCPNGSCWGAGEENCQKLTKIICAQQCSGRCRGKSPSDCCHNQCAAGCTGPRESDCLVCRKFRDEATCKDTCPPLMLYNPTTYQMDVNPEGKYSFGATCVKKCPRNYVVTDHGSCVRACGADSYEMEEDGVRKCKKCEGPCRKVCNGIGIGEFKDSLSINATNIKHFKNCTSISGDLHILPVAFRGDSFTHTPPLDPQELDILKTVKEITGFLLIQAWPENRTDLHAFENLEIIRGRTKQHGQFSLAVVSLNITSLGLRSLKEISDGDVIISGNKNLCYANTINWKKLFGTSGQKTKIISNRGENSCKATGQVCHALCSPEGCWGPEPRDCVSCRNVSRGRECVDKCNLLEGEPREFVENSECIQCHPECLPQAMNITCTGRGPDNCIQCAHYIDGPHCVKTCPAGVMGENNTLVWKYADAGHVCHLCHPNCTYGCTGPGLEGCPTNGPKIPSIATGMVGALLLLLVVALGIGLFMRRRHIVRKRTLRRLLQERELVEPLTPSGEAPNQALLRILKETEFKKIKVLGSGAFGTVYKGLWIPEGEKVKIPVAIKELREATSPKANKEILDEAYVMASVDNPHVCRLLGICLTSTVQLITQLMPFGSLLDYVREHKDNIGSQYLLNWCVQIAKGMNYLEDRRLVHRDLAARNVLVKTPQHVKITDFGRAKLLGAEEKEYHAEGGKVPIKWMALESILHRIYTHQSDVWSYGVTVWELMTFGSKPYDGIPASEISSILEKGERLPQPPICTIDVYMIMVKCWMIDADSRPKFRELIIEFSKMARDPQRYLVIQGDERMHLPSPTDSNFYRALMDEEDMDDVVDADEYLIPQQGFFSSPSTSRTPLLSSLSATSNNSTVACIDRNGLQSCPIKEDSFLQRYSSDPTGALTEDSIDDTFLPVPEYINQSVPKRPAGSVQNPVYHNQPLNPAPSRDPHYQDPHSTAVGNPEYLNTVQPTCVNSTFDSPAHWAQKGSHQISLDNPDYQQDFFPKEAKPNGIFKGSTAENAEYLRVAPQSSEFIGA
Experiment: Biochemical EGFR kinase assay (Lance Ultra TR-FRET), double mutant L858R/C797S
Conditions: ATP at Km; read-out: IC50 L858R/C797S, Km ATP
PROPERTY: IC50 (pM)

Data request: # lookup: IC50 of "C[C@]1(O)CC[C@@H](Nc2cc(Nc3ccnc(-c4cnn(S(=O)(=O)C5CC5)c4)n3)ncc2-c2cc(NCCN3CCOCC3)ccn2)CC1"
Data returned: 900

Data request: Which IC50 value belongs to "CS(=O)(=O)c1ccc(-c2cnc(Nc3ccnc(-c4cnn(S(=O)(=O)C5CC5)c4)n3)cc2N[C@H]2CC[C@@](C)(O)CC2)nc1" ?
Data returned: 400

Data request: Consider the compound "CN(C)CCOc1ccnc(-c2cnc(Nc3ccnc(-c4cnn(S(=O)(=O)C5CC5)c4)n3)cc2N[C@H]2CC[C@@](C)(O)CC2)c1" and give its measured IC50.
Data returned: 800

Data request: Data request, read-out IC50, for "C[C@]1(O)CC[C@@H](Nc2cc(Nc3ccnc(-c4cnn(S(=O)(=O)C5CC5)c4)n3)ncc2-c2cnc(F)cn2)CC1"
Data returned: 3000

Data request: IC50 for "C[C@]1(O)CC[C@@H](Nc2cc(Nc3ccnc(-c4cnn(S(=O)(=O)C5CC5)c4)n3)ncc2-c2ccc(CCC(F)(F)F)cn2)CC1" ?
Data returned: 900

Data request: Tell me the measured IC50 of O=S(=O)(C1CC1)n1cc(-c2nccc(Nc3cc(NC4CCC(F)CC4)c(-c4ccc(N5CCC(F)(F)CC5)nn4)cn3)n2)cn1 (stereo not drawn) , please.
Data returned: 357000

Data request: Form field: reported IC50 of "CN(C)S(=O)(=O)n1cc(-c2nccc(Nc3cc(N[C@H]4CC[C@@](C)(O)CC4)c(-c4ccc(CC(F)(F)F)cn4)cn3)n2)cn1"
Data returned: 10100

Data request: May I ask what IC50 has been recorded for "C[C@]1(O)CC[C@@H](Nc2cc(Nc3ccnc(-c4cnn(S(=O)(=O)C5CC5)c4)n3)ncc2-c2ccc(S(=O)(=O)N3CCOCC3)cn2)CC1" ?
Data returned: 900

a. CC(C)(O)c1ccc(-c2cnc(Nc3ccnc(-c4cnn(S(=O)(=O)C5CC5)c4)n3)cc2N[C@H]2CC[C@@H](CO)CC2)nc1
b. CC(C)(O)[C@H]1CC[C@@H](Nc2cc(Nc3ccnc(-c4cnn(S(=O)(=O)C5CC5)c4)n3)ncc2-c2ccc(OCCO)cn2)CC1
c. COC(c1ccc(-c2cnc(Nc3ccnc(-c4cnn(S(=O)(=O)C5CC5)c4)n3)cc2NC2CCC(C)(O)CC2)nc1)C(F)(F)F (stereo not drawn)
d. O=S(=O)(C1CC1)n1cc(-c2nccc(Nc3cc(N[C@H]4CC[C@@H](CO)CC4)c(-c4cc(NC5CC(F)(F)C5)ccn4)cn3)n2)cn1
Data request: Rank descending by IC50. Reply format: the labels, ordered as requested.
Data returned: c, d, b, a

###

Target: EGFR L858R/C797S (Homo sapiens, UniProt P00533, C797S/L858R)
Assay: Biochemical EGFR kinase assay (Lance Ultra TR-FRET), double mutant L858R/C797S
Conditions: Km ATP; read-out: IC50 L858R/C797S (nM) Km ATP
PROPERTY: IC50 (nM)

Look over these answered cases.
Data request: Could you tell me which IC50 is on file for "O=S(=O)(C1CC1)n1cc(-c2nccc(Nc3cc(N[C@H]4CC[C@@H](CO)CC4)c(-c4cc(CN5CCC(F)(F)CC5)ccn4)cn3)n2)cn1" ?
Data returned: 8.8

Data request: So what's the measured IC50 for this one? "C[C@]1(O)CC[C@@H](Nc2cc(Nc3ccnc(-c4cnn(S(=O)(=O)C5CC5)c4)n3)ncc2-c2cc(N3CCC(F)(F)CC3)ccn2)CC1"
Data returned: 8.2

Data request: I'd like to know its IC50. The molecule in question is "CC(C)(O)c1ccnc(-c2cnc(Nc3ccnc(-c4cnn(S(=O)(=O)C5CC5)c4)n3)cc2N[C@H]2CC[C@@H](C(C)(C)O)CC2)c1"
Data returned: 0.1

Data request: Which IC50 is listed for "CN(C)Cc1ccc(-c2cnc(Nc3ccnc(-c4cnn(S(=O)(=O)C5CC5)c4)n3)cc2N[C@H]2CC[C@@](C)(O)CC2)nc1" ?
Data returned: 0.1

Data request: So what's the measured IC50 for this one? "O=S(=O)(C1CC1)n1cc(-c2nccc(Nc3cc(N[C@H]4CC[C@@H](NCCF)CC4)c(-c4ccccn4)cn3)n2)cn1"
Data returned: 1

I. CN1CCC(Oc2ccc(-c3cnc(Nc4ccnc(-c5cnc6c(c5)CCCO6)n4)cc3N[C@H]3CC[C@@](C)(O)CC3)nc2)CC1
II. C[C@]1(O)CC[C@@H](Nc2cc(Nc3ccnc(-c4cnn(S(=O)(=O)C5CC5)c4)n3)ncc2-c2cnc(CO)cn2)CC1
Data request: Identify the item whose IC50 is the smaller number: I or II # answer = label of selected item
Data returned: II

###

Molecular target: EGFR del19/T790M/C797S (Homo sapiens, UniProt P00533, C797S/DEL746-750/T790M)
Sequence (P00533 with tags, fused parts or gaps DEL746-750/T790M/C797S): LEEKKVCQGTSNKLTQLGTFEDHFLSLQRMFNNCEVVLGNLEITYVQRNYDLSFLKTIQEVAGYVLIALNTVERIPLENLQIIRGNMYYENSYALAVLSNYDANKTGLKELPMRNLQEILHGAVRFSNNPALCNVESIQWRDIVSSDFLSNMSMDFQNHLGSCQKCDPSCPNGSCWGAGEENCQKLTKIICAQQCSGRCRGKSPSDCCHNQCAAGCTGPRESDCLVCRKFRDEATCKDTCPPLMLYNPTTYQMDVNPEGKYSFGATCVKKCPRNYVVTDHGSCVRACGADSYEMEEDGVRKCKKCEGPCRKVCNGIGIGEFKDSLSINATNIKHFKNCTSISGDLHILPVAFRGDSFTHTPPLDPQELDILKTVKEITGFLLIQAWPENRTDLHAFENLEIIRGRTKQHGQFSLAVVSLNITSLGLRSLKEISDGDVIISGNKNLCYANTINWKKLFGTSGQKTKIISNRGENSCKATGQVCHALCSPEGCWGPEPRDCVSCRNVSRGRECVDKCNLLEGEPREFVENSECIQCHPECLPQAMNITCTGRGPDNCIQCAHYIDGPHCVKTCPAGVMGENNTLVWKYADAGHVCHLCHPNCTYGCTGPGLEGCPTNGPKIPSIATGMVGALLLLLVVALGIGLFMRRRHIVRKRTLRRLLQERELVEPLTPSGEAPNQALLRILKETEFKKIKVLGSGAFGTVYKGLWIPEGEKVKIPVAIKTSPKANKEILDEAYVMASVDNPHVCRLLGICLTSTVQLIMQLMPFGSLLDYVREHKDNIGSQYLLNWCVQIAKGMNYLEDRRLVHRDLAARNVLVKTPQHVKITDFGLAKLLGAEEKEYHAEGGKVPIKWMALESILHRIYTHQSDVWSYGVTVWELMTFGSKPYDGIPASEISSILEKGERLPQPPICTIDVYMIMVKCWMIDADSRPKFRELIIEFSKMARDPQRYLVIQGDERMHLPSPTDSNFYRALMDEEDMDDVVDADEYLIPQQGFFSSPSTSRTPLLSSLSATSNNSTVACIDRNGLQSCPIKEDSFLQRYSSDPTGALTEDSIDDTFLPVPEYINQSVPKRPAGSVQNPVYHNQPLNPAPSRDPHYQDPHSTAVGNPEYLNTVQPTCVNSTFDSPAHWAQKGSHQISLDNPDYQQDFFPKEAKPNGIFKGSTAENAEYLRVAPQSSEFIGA
Assay: Biochemical EGFR kinase assay (Lance Ultra TR-FRET), triple mutant del19/T790M/C797S
Conditions: IC50 del19/T790M/C797S, 100 μM ATP
PROPERTY: IC50 (nM)

Data request: So what's the measured IC50 for this one? O=S(=O)(C1CC1)n1cc(-c2nccc(Nc3cc(N[C@H]4CC[C@@H](CO)CC4)c(-c4ccc(OC(F)(F)F)cn4)cn3)n2)cn1 [Example 195]
Data returned: 3.6

Data request: # lookup: IC50 of CN(C)C(=O)[C@H]1CC[C@@H](Nc2cc(Nc3ccnc(-c4cnn(S(=O)(=O)C5CC5)c4)n3)ncc2-c2ccc(C(C)(C)O)cn2)CC1 [Example 172]
Data returned: 0.6

Data request: Would you kindly share the measured IC50 for CN(C)CCOc1ccnc(-c2cnc(Nc3ccnc(-c4cnn(S(=O)(=O)C5CC5)c4)n3)cc2N[C@H]2CC[C@@](C)(O)CC2)c1 [Example 287] ?
Data returned: 0.3

Data request: Suppose we examine the molecule CN1CCN(C(=O)c2ccc(-c3cnc(Nc4ccnc(-c5cnn(S(=O)(=O)C6CC6)c5)n4)cc3N[C@H]3CC[C@@](C)(O)CC3)nc2)CC1 [Example 199] ; what IC50 value has been reported?
Data returned: 0.7

Data request: Could you share which IC50 value was measured for CC(C)(O)[C@H]1CC[C@@H](Nc2cc(Nc3ccnc(-c4cnn(S(=O)(=O)C5CC5)c4)n3)ncc2-c2ccc(C(=O)N3CCOCC3)cn2)CC1 [Example 201] ?
Data returned: 0.4

P. C[C@]1(O)CC[C@@H](Nc2cc(Nc3ccnc(-c4cnn(S(=O)(=O)C5CC5)c4)n3)ncc2-c2ccc(OCCO)cn2)CC1 [Example 205]
Q. C[C@]1(O)CC[C@@H](Nc2cc(Nc3ccnc(-c4cnn(S(=O)(=O)C5CC5)c4)n3)ncc2-c2cc(NC3CC(F)(F)C3)ccn2)CC1 [Example 280]
R. CC1(O)CCC(Nc2cc(Nc3ccnc(-c4cnn(S(=O)(=O)C5CC5)c4)n3)ncc2-c2cc(NC3CC(O)C3)ccn2)CC1 (stereo not shown) [Example 283]
Data request: Hello, I need these entries ordered by IC50, highest reading first. Thanks! // format: requested-order list of labels
Data returned: Q, P, R

###

Target: EGFR del19/C797S (Homo sapiens, UniProt P00533, C797S/DEL746-750)
Sequence (P00533 with tags, fused parts or gaps DEL746-750/C797S): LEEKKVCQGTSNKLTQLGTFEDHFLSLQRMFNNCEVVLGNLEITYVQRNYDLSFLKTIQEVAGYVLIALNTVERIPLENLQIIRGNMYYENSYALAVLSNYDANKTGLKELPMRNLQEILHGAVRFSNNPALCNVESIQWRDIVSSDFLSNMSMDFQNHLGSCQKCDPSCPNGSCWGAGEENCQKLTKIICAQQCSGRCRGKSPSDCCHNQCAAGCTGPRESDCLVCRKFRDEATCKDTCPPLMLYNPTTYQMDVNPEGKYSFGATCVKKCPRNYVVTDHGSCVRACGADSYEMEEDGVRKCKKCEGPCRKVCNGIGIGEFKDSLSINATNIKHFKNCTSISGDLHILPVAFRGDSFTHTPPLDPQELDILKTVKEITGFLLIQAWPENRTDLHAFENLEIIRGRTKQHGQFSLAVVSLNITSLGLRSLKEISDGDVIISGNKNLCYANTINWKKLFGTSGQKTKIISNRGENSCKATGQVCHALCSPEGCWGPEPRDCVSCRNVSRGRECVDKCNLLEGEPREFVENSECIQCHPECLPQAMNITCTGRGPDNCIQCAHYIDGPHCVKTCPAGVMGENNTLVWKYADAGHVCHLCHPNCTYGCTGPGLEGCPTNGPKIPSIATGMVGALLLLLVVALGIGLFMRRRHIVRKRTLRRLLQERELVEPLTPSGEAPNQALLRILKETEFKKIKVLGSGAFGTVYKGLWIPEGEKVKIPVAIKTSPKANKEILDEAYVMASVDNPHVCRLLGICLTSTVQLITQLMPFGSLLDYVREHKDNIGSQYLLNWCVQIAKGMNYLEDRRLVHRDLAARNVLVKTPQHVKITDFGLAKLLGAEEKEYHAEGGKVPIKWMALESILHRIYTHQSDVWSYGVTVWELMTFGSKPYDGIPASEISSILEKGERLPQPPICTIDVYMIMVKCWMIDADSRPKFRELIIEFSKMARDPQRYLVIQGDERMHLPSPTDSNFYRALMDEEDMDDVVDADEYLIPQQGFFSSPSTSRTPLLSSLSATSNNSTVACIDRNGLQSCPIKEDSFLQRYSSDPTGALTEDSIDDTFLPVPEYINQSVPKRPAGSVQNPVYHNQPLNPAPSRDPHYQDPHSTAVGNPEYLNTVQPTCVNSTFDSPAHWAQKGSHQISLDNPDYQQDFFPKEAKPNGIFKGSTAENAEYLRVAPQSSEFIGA
Test: Biochemical EGFR kinase assay (Lance Ultra TR-FRET), double mutant del19/C797S
Conditions: IC50 del19/C797S, 100 μM ATP
pIC50: −log10 of the molar value.
PROPERTY: pIC50

Data request: Using the record for C[C@]1(O)CC[C@@H](Nc2cc(Nc3ccnc(-c4cnn(S(=O)(=O)C5CC5)c4)n3)ncc2-c2ccc(OC(F)(F)F)cn2)CC1 [Example 194] , report its pIC50.
Data returned: 7.77

Data request: Form field: reported pIC50 of CC(C)(F)c1ccc(-c2cnc(Nc3ccnc(-c4cnn(S(=O)(=O)C5CC5)c4)n3)cc2N[C@H]2CC[C@@H](C(C)(C)O)CC2)nc1 [Example 236]
Data returned: 7.61

Data request: Need pIC50, item CN(C)S(=O)(=O)c1ccc(-c2cnc(Nc3ccnc(-c4cnn(S(=O)(=O)C5CC5)c4)n3)cc2N[C@H]2CC[C@@H](CO)CC2)nc1 [Example 166]
Data returned: 8.62

a. C[C@]1(O)CC[C@@H](Nc2cc(Nc3ccnc(-c4cnn(S(=O)(=O)C5CC5)c4)n3)ncc2-c2ccc(OCCO)cn2)CC1 [Example 205]
b. CN1CCN(C(=O)c2ccc(-c3cnc(Nc4ccnc(-c5cnn(S(=O)(=O)C6CC6)c5)n4)cc3N[C@H]3CC[C@@H](CN(C)C)CC3)nc2)CC1 [Example 204]
Data request: Smaller pIC50 value, a vs b ? State the label of the item chosen.
Data returned: a

P. C[C@]1(O)CC[C@@H](Nc2cc(Nc3ccnc(-c4cnn(S(=O)(=O)C5CC5)c4)n3)ncc2-c2ccc(N3CC(F)(F)C3)cn2)CC1 [Example 224]
Q. C[C@]1(O)CC[C@@H](Nc2cc(Nc3ccnc(-c4cnn(S(=O)(=O)C5CC5)c4)n3)ncc2-c2cccc(NCCO)n2)CC1 [Example 285]
R. CC(C)(O)C1CCC(Nc2cc(Nc3ccnc(-c4cnn(S(=O)(=O)C5CC5)c4)n3)ncc2-c2ccc(C(C)(O)C(F)(F)F)cn2)CC1 (stereo not drawn) [Example 233]
Data request: # rank by pIC50, ascending (min first) // rank by listing labels in the order requested
Data returned: R, P, Q

1. O=S(=O)(C1CC1)n1cc(-c2nccc(Nc3cc(N[C@H]4CC[C@@H](NCC(F)F)CC4)c(-c4cccc(F)n4)cn3)n2)cn1 [Example 275]
2. CC(C)(O)[C@H]1CC[C@@H](Nc2cc(Nc3ccnc(-c4cnn(S(=O)(=O)C5CC5)c4)n3)ncc2-c2cc(NC3CC(F)(F)C3)ccn2)CC1 [Example 215]
Data request: Returns: the argument ( 1 or 2 ) having the larger pIC50. Write down the label of the entry you select.
Data returned: 1
(1: 8.59, 2: 7.44)
